Target: CDK5/CDK5R1 (Homo sapiens, UniProt Q00535)
Sequence (Q00535 whole entry): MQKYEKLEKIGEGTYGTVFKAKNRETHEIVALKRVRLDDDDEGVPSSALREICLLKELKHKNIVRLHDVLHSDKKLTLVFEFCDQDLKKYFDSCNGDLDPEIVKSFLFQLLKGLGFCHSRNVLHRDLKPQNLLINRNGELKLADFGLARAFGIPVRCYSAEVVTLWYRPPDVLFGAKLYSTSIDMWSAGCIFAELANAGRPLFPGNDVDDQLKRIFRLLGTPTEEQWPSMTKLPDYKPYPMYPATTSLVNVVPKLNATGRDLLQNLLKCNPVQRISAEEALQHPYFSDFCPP
Sequence (Q15078 whole entry partner): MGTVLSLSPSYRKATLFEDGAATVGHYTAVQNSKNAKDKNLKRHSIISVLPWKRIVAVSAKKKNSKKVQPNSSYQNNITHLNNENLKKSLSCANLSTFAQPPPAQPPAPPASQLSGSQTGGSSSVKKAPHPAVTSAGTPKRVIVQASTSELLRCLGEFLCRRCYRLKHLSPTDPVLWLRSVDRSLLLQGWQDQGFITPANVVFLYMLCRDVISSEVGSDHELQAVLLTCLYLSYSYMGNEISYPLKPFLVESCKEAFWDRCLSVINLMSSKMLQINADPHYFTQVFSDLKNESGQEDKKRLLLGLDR
Experiment: NanoBRET live-cell target engagement, CDK5-NanoLuc/CDK5R1 in HEK-293
Assay type: binding
Conditions: independent experiment 2; read-out: CDK5/CDK5R1 IC50
REPORTED METRIC: IC50 (nM)
State just the number; it will be interpreted in nM.

{"SMILES INPUT": "CC(C)CC(=O)Nc1[nH]nc2c1CN(C(=O)C1CCN(C)CC1)C2(C)C", "UNIT TAG": "nM", "IC50": 300}
{"SMILES INPUT": "CN1C/C=C/CCOc2cccc(c2)-c2ccnc(n2)Nc2cccc(c2)C1", "UNIT TAG": "nM", "IC50": 180}

Attention now shifts to the item below.
query: # get_value(readout= IC50, system= CDK5/CDK5R1 (Homo sapiens, UniProt Q00535)) for COCCN1CCN(Cc2ccc(-c3n[nH]c4c3C(=O)c3c(NC(=O)NN5CCOCC5)cccc3-4)cc2)CC1
result: 70

###

Target: CDK14/Cyclin Y (Homo sapiens, UniProt O94921)
Sequence (O94921 whole entry): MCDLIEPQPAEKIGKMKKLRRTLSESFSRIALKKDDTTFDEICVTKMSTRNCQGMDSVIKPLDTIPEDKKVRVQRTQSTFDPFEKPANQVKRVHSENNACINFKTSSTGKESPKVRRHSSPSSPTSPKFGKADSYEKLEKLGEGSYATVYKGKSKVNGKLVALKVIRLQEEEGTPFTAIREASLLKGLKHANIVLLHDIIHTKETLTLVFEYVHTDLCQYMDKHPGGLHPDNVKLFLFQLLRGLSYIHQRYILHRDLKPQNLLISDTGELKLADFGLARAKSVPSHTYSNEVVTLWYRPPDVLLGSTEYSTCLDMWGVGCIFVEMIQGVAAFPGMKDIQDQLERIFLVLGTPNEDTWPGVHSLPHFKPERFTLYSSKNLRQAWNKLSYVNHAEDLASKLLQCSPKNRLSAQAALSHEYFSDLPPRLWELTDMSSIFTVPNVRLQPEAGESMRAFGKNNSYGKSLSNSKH
Sequence (Q8ND76 whole entry partner): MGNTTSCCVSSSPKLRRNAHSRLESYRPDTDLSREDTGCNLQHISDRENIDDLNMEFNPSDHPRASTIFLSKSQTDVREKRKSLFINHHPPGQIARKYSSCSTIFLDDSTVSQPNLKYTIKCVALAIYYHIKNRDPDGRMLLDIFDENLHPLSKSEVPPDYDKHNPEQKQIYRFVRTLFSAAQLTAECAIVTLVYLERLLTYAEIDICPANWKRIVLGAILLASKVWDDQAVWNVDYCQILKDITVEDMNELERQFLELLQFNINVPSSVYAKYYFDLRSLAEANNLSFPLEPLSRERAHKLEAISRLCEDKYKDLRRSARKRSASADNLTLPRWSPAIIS
Assay: NanoBRET live-cell target engagement, CDK14-NanoLuc/Cyclin Y in HEK-293
Format: binding
Details: CDK14/Y; read-out: IC50 (nM) Replicate 3
REPORTED METRIC: IC50

{"MOLECULE": "C[C@H]1CC[C@H](n2c3cnccc3c3cnc(Nc4ccc5c(n4)CCN(C(=O)CO)C5)nc32)CC1 [AMG 925]", "MEASURED TARGET": "CDK14/Cyclin Y (Homo sapiens, UniProt O94921)", "RESULT": "766 nM"}

query: Item under review: CCCCOc1c(C(=O)c2c(F)cc(C)cc2F)c[nH]c2nncc1-2 [BMS-265246] . Reported IC50?
result: 570 nM

###

Documented inhibition at 10 µM across a set of compounds
Target: CDK15/Cyclin Y (Homo sapiens, UniProt Q96Q40)
Sequence (Q96Q40 whole entry): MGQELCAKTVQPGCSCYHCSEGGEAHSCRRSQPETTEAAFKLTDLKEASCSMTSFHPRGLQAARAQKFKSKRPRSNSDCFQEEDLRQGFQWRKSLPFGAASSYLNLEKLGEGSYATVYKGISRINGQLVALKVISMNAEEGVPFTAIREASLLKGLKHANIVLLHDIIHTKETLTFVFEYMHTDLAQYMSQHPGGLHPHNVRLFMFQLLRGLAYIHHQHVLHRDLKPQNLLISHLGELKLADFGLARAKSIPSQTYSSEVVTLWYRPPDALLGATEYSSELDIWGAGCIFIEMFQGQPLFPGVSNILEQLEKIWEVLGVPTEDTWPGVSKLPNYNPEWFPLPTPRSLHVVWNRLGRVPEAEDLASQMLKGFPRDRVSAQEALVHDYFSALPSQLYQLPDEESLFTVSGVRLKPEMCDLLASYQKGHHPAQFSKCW
Sequence (Q8ND76 whole entry partner): as the sequence (Q8ND76 whole entry partner) above
Assay: NanoBRET live-cell target engagement, NanoLuc-CDK15/Cyclin Y in HEK-293
Format: binding
Conditions: CDK15/Y; 10µM; read-out: Inhibition at 10µM (%) Replicate 2
State just the number; it will be interpreted in %.

Some solved cases for reference:
{"COMPOUND": "CCN1CCN(Cc2ccc(Nc3ncc(F)c(-c4cc(F)c5nc(C)n(C(C)C)c5c4)n3)nc2)CC1", "MEASURED TARGET": "CDK15/Cyclin Y (Homo sapiens, UniProt Q96Q40)", "inhibition at 10 µM / %": 57.5}
{"COMPOUND": "COc1cc(F)ccc1-c1cc(Nc2cc(CS(C)(=N)=O)ccn2)ncc1F (centres unmarked)", "MEASURED TARGET": "CDK15/Cyclin Y (Homo sapiens, UniProt Q96Q40)", "inhibition at 10 µM / %": 48.2}
{"COMPOUND": "CCCCOc1c(C(=O)c2c(F)cc(C)cc2F)c[nH]c2nncc1-2", "MEASURED TARGET": "CDK15/Cyclin Y (Homo sapiens, UniProt Q96Q40)", "inhibition at 10 µM / %": 19}
{"COMPOUND": "COc1cc(F)ccc1-c1ncnc(Nc2cccc(C[S@](C)(=N)=O)c2)n1", "MEASURED TARGET": "CDK15/Cyclin Y (Homo sapiens, UniProt Q96Q40)", "inhibition at 10 µM / %": 7.1}

query: Item under review: Cc1ncc(-c2ccnc(Nc3ccc(S(C)(=O)=O)cc3)n2)n1C(C)C . Reported inhibition at 10 µM?
result: 74.8

Reference source: paper PMC7265341
